- system: GST-tagged truncated human mutant G2019S LRRK2 (Homo sapiens (Human), UniProt Q5S007, G2019S)
- Sequence (Q5S007 970-2527 G2019S): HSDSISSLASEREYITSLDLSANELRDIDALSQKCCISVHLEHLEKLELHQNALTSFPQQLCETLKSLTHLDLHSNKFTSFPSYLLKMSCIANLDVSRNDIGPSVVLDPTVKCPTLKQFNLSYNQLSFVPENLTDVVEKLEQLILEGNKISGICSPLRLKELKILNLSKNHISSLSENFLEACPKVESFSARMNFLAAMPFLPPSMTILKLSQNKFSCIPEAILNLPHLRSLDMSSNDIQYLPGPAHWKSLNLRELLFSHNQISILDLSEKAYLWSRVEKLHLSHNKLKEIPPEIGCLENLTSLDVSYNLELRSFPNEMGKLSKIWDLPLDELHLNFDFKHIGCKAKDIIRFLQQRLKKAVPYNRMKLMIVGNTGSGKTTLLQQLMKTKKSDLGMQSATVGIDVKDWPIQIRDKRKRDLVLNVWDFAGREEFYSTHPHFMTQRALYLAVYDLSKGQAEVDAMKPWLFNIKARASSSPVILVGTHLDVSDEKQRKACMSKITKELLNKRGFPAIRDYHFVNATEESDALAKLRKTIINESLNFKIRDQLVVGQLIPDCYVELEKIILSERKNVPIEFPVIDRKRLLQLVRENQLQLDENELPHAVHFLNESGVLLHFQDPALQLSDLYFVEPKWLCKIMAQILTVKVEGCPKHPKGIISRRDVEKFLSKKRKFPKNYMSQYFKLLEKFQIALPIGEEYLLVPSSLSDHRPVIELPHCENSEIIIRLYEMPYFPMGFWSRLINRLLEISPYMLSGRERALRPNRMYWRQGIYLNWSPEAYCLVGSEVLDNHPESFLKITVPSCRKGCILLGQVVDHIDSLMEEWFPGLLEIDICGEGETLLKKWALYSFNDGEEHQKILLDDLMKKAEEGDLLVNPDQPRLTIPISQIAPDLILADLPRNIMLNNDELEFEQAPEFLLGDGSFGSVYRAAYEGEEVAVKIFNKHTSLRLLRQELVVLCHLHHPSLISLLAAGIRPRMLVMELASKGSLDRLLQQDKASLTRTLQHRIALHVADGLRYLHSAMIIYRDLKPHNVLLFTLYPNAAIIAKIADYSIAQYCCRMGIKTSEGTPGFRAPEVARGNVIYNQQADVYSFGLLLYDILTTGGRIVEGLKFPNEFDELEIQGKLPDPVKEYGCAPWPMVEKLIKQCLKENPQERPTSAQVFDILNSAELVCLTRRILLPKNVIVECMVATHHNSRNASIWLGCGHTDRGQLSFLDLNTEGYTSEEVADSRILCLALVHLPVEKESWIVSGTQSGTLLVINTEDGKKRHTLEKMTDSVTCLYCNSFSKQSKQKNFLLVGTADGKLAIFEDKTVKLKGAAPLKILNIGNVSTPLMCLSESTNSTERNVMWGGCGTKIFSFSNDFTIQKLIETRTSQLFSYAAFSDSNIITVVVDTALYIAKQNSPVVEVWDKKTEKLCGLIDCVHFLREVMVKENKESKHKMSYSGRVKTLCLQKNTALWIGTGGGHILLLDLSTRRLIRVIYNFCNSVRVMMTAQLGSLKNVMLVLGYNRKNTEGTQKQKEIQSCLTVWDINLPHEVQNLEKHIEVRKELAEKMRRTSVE
- assay remarks: LRRK2 G2019S Km ATP LanthaScreen assay
- Format: biochemical
- cond: G2019S LRRK2, 134 μM ATP (Km ATP), LRRKtide substrate
- Text: Unless otherwise noted, all reactions are magnetically allowed to stir, diethyl ether used in the experiments described below is Fisher ACS certified material stabilized with BHT, and “concentrated” and/or “solvent removed under reduced pressure” means evaporating the solvent from a solution or mixture using a rotary evaporator or vacuum pump. […]
Classify as follows. Reported LRRK2 pIC50 greater than or equal to 8: true (1). Reported LRRK2 pIC50 below: false (0).

compound: Cc1nn(C2CCC2)c2c1OCCC(C)Nc1nc(ncc1C(F)(F)F)N2 (single isomer, unassigned) [Ex-2.6]
assigned class: true (1)
--
compound: O[C@@H]1COCC1n1nc(C2CC2)c2c1OC[C@H]1CC[C@@H]1Nc1nc(ncc1C(F)(F)F)N2 (single isomer, unassigned) [Ex-6.3]
assigned class: false (0)
--
compound: Cc1nn(C)c2c1OCC1CC[C@H]1Nc1nc(ncc1C(F)(F)F)N2 (stereo partly shown) [Ex-2.13]
assigned class: true (1)
--
compound: FC(F)(F)c1cnc2nc1NC1CCC1COc1c(C3CCOC3)nn(C3CCC3)c1N2 (stereo not shown) [Ex-2.62]
assigned class: false (0)
--
compound: N#CC1CC1c1nn(C2CCC2)c2c1OC[C@@H]1COC[C@H]1Nc1nc(ncc1C(F)(F)F)N2 (single isomer, unassigned) [Ex-2.51]
assigned class: true (1)

Continue with the compound presented below.
Entry Cc1nn(C(C)C)c2c1OCCC(C)Nc1nc(ncc1C(F)(F)F)N2 (single isomer, unassigned) [Ex-2.9] : is its LRRK2 pIC50 no less than 8?
false (0)
